For each record, write down the corresponding EC50.
# system under test: human GPR119 (Homo sapiens)
# Sequence (Q8TDV5 1-335): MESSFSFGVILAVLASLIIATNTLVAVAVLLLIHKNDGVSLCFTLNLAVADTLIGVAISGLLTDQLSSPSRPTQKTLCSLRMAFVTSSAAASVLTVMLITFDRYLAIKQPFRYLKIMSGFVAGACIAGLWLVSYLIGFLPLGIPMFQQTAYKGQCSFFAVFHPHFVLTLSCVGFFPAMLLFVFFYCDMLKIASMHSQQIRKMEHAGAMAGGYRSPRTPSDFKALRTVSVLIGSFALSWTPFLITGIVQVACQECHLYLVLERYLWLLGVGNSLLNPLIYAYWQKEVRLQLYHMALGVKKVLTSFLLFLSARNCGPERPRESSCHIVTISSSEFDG
# test description: Functional cellular assay measuring GPR119-mediated cAMP release (HTRF), HEK-293 cells stably expressing recombinant GPR119
# run parameters: cell line expressing human GPR119; cAMP response, 30 minutes at room temperature
Could you give me the number in µM? Just the number is fine.

I have this molecule here, O=C1CCCc2ccc(N3CC[C@@H](Oc4ccc(OCCC5CC5)nc4)C3=O)cc21 , and I need its recorded EC50.
0.699

I have this molecule here, CC(C)CCOc1ccc(OC2CCN(c3ccc4c(c3)C(=O)CC4)C2=O)cc1 (stereo not shown) , and I need its recorded EC50.
0.385

I have this molecule here, CCCOc1ccc(O[C@@H]2CCN(c3cc(F)c4c(c3)C(=O)CC4)C2=O)cn1 , and I need its recorded EC50.
0.005

I have this molecule here, CCCOc1cc(O[C@@H]2CCN(c3cc(F)c4c(c3)C(=O)CC4)C2=O)ccn1 , and I need its recorded EC50.
0.065

I have this molecule here, CC(CCO)CCOc1ccc(O[C@@H]2CCN(c3cc(F)c4c(c3)C(=O)CC4)C2=O)cn1 (stereo partly shown) , and I need its recorded EC50.
1.05

I have this molecule here, O=C1CCc2c(F)cc(N3CC[C@@H](Oc4ccc(OCC5CCCO5)nc4)C3=O)cc21 (stereo partly shown) , and I need its recorded EC50.
13

I have this molecule here, CCCC(C)Oc1ccc(O[C@@H]2CCN(c3cc(F)c4c(c3)C(=O)CC4)C2=O)cn1 (stereo partly shown) , and I need its recorded EC50.
0.018

I have this molecule here, COc1ccc(O[C@@H]2CCN(c3cc(F)c4c(c3)C(=O)CC4)C2=O)cn1 , and I need its recorded EC50.
0.223

I have this molecule here, O=C(O)c1cc(O[C@@H]2CCN(c3cc(F)c4c(c3)C(=O)CC4)C2=O)cnc1OCC1CC1 , and I need its recorded EC50.
2.69

I have this molecule here, O=C1CCc2c(F)cc(N3CC[C@@H](Oc4ccc(OCCOCCO)nc4)C3=O)cc21 , and I need its recorded EC50.
0.289

I have this molecule here, CC(C)Sc1ccc(O[C@@H]2CCN(c3cc(F)c4c(c3)C(=O)CC4)C2=O)cn1 , and I need its recorded EC50.
0.033

I have this molecule here, CCCCOc1cc(O[C@@H]2CCN(c3cc(F)c4c(c3)C(=O)CC4)C2=O)ccn1 , and I need its recorded EC50.
0.19

I have this molecule here, CC(=O)N1CCCC(Oc2ccc(O[C@@H]3CCN(c4cc(F)c5c(c4)C(=O)CC5)C3=O)cn2)C1 (stereo partly shown) , and I need its recorded EC50.
3.01

I have this molecule here, O=C1CCc2c(F)cc(N3CC[C@@H](Oc4ccc(OC(F)(F)F)cc4)C3=O)cc21 , and I need its recorded EC50.
0.086

I have this molecule here, CC(C)Oc1ccc(O[C@H]2CCN(c3cc(F)c4c(c3)C(=O)CC4)C2=O)cn1 , and I need its recorded EC50.
1.05

I have this molecule here, O=C1CCc2c(F)cc(N3CC[C@@H](Oc4ccc(OCCCCCO)nc4)C3=O)cc21 , and I need its recorded EC50.
2.38

I have this molecule here, O=C1CCc2c(F)cc(N3CC[C@@H](Oc4ccc(OC5CCOC5)nc4)C3=O)cc21 (stereo partly shown) , and I need its recorded EC50.
0.063

I have this molecule here, COC(=O)c1cc(O[C@@H]2CCN(c3cc(F)c4c(c3)C(=O)CC4)C2=O)cnc1OCC1CC1 , and I need its recorded EC50.
0.064

I have this molecule here, COC(C)(C)CCOc1ccc(O[C@@H]2CCN(c3cc(F)c4c(c3)C(=O)CC4)C2=O)cn1 , and I need its recorded EC50.
0.068

I have this molecule here, Cc1c(N2CC[C@@H](Oc3ccc(OCC4CC4)nc3)C2=O)cc(F)c2c1C(=O)CC2 , and I need its recorded EC50.
0.692

I have this molecule here, O=C1CCc2c(Br)cc(N3CC[C@@H](Oc4ccc(OCC5CC5)nc4)C3=O)cc21 , and I need its recorded EC50.
0.287

I have this molecule here, CN1CCC[C@H]1COc1ccc(O[C@@H]2CCN(c3cc(F)c4c(c3)C(=O)CC4)C2=O)cn1 , and I need its recorded EC50.
2.22
